Entries and their LC retention time values follow.
# ASSAY_INFO: RP, Waters ACQUITY UPLC BEH C18, 100 × 1 mm, 1.7 µm, 50 °C, 0.3 mL/min, estimated dead time 0.17 min; A: water + 0.1% formic acid + 20 mM ammonium formate; B: methanol + 0.1% formic acid + 20 mM ammonium formate; gradient (min/%B) 0/0 15/100 21/100 22/0 30/0
# CONDITION_DETAILS: stereoisomer not certain
Give just the numeric value; min need not be written.

COMPOUND | QUANTITY_UNIT | EXPERIMENTAL_VALUE
O=c1c(OC2OC(CO)C(O)C(O)C2O)c(-c2ccc(O)c(O)c2)oc2cc(O)cc(O)c12 (configuration not stated) [Hyperoside] | min | 9.67
Oc1cc(Cl)c(Cl)c(Cl)c1 | min | 15.2
CC1CCC2(NC1)OC1CC3C4CC=C5CC(O)CCC5(C)C4CCC3(C)C1C2C (configuration not stated) | min | 14.3

Request the reported LC retention time associated with CCCC1OC2CC3C4CCC5=CC(=O)C=CC5(C)C4C(O)CC3(C)C2(C(=O)CO)O1 (configuration not stated) [Budesonide]
14.8

Request the reported LC retention time associated with CCOCCOC(=O)c1ccccc1C(=O)OCCOCC [Bis(2-ethoxyethyl)phthalate]
13.3

Request the reported LC retention time associated with `Nc1ccc(Cc2ccc(N)cc2)cc1`
5.44

Request the reported LC retention time associated with CC(C)=CCc1c(O)cc(O)c2c1OC(c1ccc(O)cc1)CC2=O (configuration not stated)
14.5

Request the reported LC retention time associated with `CNc1cnn(-c2cccc(C(F)(F)F)c2)c(=O)c1Cl`
13.3

Request the reported LC retention time associated with `CC(C)(C)c1cccc(C(C)(C)C)c1O`
16.2

Request the reported LC retention time associated with `CN1COCN(Cc2cnc(Cl)s2)C1=O`
9.42

Request the reported LC retention time associated with `NCC1(CC(=O)O)CCCCC1`
7.38

Request the reported LC retention time associated with CC(=O)OC1C(=O)C2(C)C(O)CC3OCC3(OC(C)=O)C2C(OC(=O)c2ccccc2)C2(O)CC(OC(=O)C(O)C(NC(=O)c3ccccc3)c3ccccc3)C(C)=C1C2(C)C (configuration not stated)
15

Request the reported LC retention time associated with CCC1OC(=O)C(C)C(OC2CC(C)(OC)C(O)C(C)O2)C(C)C(OC2OC(C)CC(N(C)C)C2O)C(C)(OC)CC(C)C(=O)C(C)C(O)C1(C)O (configuration not stated)
14.1

Request the reported LC retention time associated with `COC(=O)c1ccccc1C(=O)OC`
11.2

Request the reported LC retention time associated with `Cn1cnc2c1c(=O)n(CCCC(=O)O)c(=O)n2C`
8.38

Request the reported LC retention time associated with CC1CCC2(OC1)OC1CC3C4CC=C5CC(O)CCC5(C)C4CCC3(C)C1C2C (configuration not stated)
19

Request the reported LC retention time associated with CC(C=CC1=C(C)CCCC1(C)C)=CC=CC(C)=CC(=O)O [9-cis-Retinoic acid]
16

* * *

# ASSAY_INFO: RP, Waters ACQUITY UPLC BEH C18, 100 × 1 mm, 1.7 µm, 50 °C, 0.3 mL/min, estimated dead time 0.17 min; A: water + 0.1% formic acid + 20 mM ammonium formate; B: methanol + 0.1% formic acid + 20 mM ammonium formate; gradient (min/%B) 0/0 15/100 21/100 22/0 30/0
# CONDITION_DETAILS: stereoisomer not certain
Entries and their LC retention time values follow.
Give just the numeric value; min need not be written.

Examples with their reported LC retention time follow.
COMPOUND | QUANTITY_MEASURED | EXPERIMENTAL_VALUE
CC=C(C)C(=O)OC1CC[N+]2([O-])CC=C(COC(=O)C(O)(C(C)O)C(C)(C)O)C12 (centres undefined) [Echimidine N-oxide] | LC retention time | 9.37
O=C(O)c1ccccc1Nc1cccc(C(F)(F)F)c1 [Flufenamic acid] | LC retention time | 16.2
C=C1CC(=CC)C(=O)OC2CC[N+]3([O-])CC=C(COC(=O)C1(C)O)C23 (centres undefined) [Seneciphylline N-oxide] | LC retention time | 8.11

We now examine a further compound.
Request the reported LC retention time associated with N#Cc1nn(-c2c(Cl)cc(C(F)(F)F)cc2Cl)c(N)c1C(F)(F)F [Fipronil desulfinyl]
15.1

FYI, the data here is from the RepoRT retention time repository (doi:10.1021/acs.analchem.1c00972).
